Some molecules, each annotated with its measured IC50.
Target: PSMA-expressing C4-2 cells (Homo sapiens)
Construct: PSMA-expressing C4-2 cells (ATCC, Cat. No. CRL-3314) were cultured in RPMI-1640; host or cells: C4-2 cells
Sequence (Q04609 whole entry): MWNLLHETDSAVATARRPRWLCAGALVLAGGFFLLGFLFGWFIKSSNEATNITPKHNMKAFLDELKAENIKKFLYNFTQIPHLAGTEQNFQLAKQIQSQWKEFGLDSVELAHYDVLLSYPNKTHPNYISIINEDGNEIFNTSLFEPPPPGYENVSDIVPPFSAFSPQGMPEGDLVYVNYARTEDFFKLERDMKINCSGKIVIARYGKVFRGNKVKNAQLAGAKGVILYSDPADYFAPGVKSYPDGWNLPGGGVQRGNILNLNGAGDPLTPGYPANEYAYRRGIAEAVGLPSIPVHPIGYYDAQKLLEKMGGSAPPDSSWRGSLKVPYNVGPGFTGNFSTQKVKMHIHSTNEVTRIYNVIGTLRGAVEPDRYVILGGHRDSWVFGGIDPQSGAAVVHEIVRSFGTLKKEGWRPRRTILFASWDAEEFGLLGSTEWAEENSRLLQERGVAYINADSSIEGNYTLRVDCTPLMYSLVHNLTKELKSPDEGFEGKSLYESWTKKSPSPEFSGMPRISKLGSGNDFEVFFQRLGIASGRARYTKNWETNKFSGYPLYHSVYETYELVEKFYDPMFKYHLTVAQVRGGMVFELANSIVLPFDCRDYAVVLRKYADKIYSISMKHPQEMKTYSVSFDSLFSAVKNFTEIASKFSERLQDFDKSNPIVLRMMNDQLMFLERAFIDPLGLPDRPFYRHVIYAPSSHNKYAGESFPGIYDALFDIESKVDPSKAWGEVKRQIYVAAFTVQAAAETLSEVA
Assay: FACS binding assay (competition with 50 nM PSM-0183)
Details: FACS binding, PSMA-expressing C4-2 cells; pIC50 category; read-out: pIC50 [C4-2] CAT (converted)
Numbered stars: 1 amine (or outer) side, 2 acyl side, 3 side chain; on linkers, the order of the positions; unused ones are H or OH. Bridge positions count the residues as written; N and C are the ends. Square brackets hold non-standard residues; d marks the D form. Peptide text beside a SMILES is read from it. * marks the point of attachment. ξ: configuration not given here. X3 = O=C(O)CN1CCN(CC(=O)O)CCN(CC(=O)NCCCOCCOCCOCCCN*)CCN(CC(=O)O)CC1; DOTA = O=C(O)CN1CCN(CC(=O)O)CCN(CC(=O)*)CCN(CC(=O)O)CC1; Phe(3,4-Cl2) = N[C@@H](Cc1ccc(Cl)c(Cl)c1)C(=O)O; Phe(4-Cl) = N[C@@H](Cc1ccc(Cl)cc1)C(=O)O; NMeF = CN[C@@H](Cc1ccccc1)C(=O)O; X1 = O=C(CC1CCN([*:1])CC1)[*:2]; Cit = NC(=O)NCCC[C@H](N)C(=O)O; Suc = O=C(CCC(=O)[*:2])[*:1]; Tle = CC(C)(C)[C@H](N)C(=O)O; Nle = CCCC[C@H](N)C(=O)O; ξL = CC(C)CC(N)C(=O)O; Aib = CC(C)(N)C(=O)O

Below: 3 molecules and their reported IC50.
Molecule | Result
CC(=O)NCCCC[C@@H]1NC(=O)[C@H](CCCCN)NC(=O)[C@@H](NC(=O)[C@H](Cc2ccc(Cl)cc2)NC(=O)C(C)(C)NC(=O)[C@@H](NC(=O)CC2CCN(C(=O)CN3CCN(CC(=O)O)CCN(CC(=O)O)CCN(CC(=O)O)CC3)CC2)[C@@H](C)O)CSSC[C@@H](C(=O)N[C@H](C(=O)N[C@H](C(N)=O)[C@@H](C)O)C(C)(C)C)NC(=O)[C@H](CC(N)=O)NC(=O)C(C)(C)NC1=O [PSM-0341] ({DOTA}-[X1]T[Aib][Phe(4-Cl)]CKK(Ac)[Aib]NC[Tle]T-NH2; disulfide 5-10) | 200 to 1260 nM
CCCC[C@H](NC(=O)[C@@H]1CSSC[C@H](NC(=O)[C@H](Cc2ccccc2)NC(=O)[C@H](C)NC(=O)[C@@H](NC(C)=O)[C@@H](C)O)C(=O)N[C@@H](CCCCN)C(=O)N[C@@H](CCCNC(=N)N)C(=O)N[C@@H](C)C(=O)N[C@@H](C)C(=O)N1)C(=O)N[C@H](C(=O)N[C@@H](CC(=O)O)C(N)=O)[C@@H](C)O [PSM-0335] (Ac-TAFCKRAAC[Nle]TD-NH2; disulfide 4-9) | 1260 to 3160 nM
CC(C)CC(NC(=O)[C@@H]1CSSC[C@H](NC(=O)[C@H](Cc2ccccc2)NC(=O)[C@H](C)NC(=O)[C@@H](NC(=O)CCC(=O)NCCCOCCOCCOCCCNC(=O)CN2CCN(CC(=O)O)CCN(CC(=O)O)CCN(CC(=O)O)CC2)[C@@H](C)O)C(=O)N[C@@H](CCCCN)C(=O)N[C@@H](CCCNC(=N)N)C(=O)N[C@@H](C)C(=O)N[C@@H](CC(N)=O)C(=O)N1)C(=O)N[C@H](C(N)=O)[C@@H](C)O (stereo partly drawn) [PSM-0305] ({X3-Suc}-TAFCKRANC[ξL]T-NH2; disulfide 4-9) | 200 to 1260 nM

Problem: Which value of IC50 has been reported for CC(=O)N[C@H](C(=O)NC(C)(C)C(=O)N[C@@H](Cc1ccccc1)C(=O)N[C@H]1CSSC[C@@H](C(=O)N[C@H](C(=O)O)C(C)(C)C)NC(=O)[C@H](CC(N)=O)NC(=O)C(C)(C)NC(=O)[C@H](CCCNC(=N)N)NC(=O)[C@H](CCCCN)NC1=O)[C@@H](C)O [PSM-0300] (Ac-T[Aib]FCKR[Aib]NC[Tle]-OH; disulfide 4-9) in the records?
Solution: < 200 nM

Problem: Requested field: IC50. Item: C[C@@H](O)[C@H](NC(=O)[C@@H](NC(=O)[C@@H]1CSSC[C@H](NC(=O)[C@H](Cc2ccc(Cl)c(Cl)c2)NC(=O)C(C)(C)NC(=O)[C@@H](NC(=O)CC2CCN(C(=O)CN3CCN(CC(=O)O)CCN(CC(=O)O)CCN(CC(=O)O)CC3)CC2)[C@@H](C)O)C(=O)N[C@@H](CCCCN)C(=O)N[C@@H](CCCNC(N)=O)C(=O)NC(C)(C)C(=O)N[C@@H](CC(N)=O)C(=O)N1)C(C)(C)C)C(N)=O [PSM-0274] ({DOTA}-[X1]T[Aib][Phe(3,4-Cl2)]CK[Cit][Aib]NC[Tle]T-NH2; disulfide 5-10)
Solution: < 200 nM

Problem: Could you share which IC50 value was measured for CC(=O)N[C@H](C(=O)N[C@@H](C)C(=O)N(C)[C@@H](Cc1ccccc1)C(=O)N[C@H]1CSSC[C@@H](C(=O)N[C@H](C(=O)N[C@H](C(N)=O)[C@@H](C)O)C(C)(C)C)NC(=O)[C@H](CC(N)=O)NC(=O)C(C)(C)NC(=O)[C@H](CCCNC(=N)N)NC(=O)[C@H](CCCCN)NC1=O)[C@@H](C)O [PSM-0319] (Ac-TA[NMeF]CKR[Aib]NC[Tle]T-NH2; disulfide 4-9) ?
Solution: < 200 nM
